B1: PLAGL1 (parent)
chain: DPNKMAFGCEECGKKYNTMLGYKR

variants of: B1; assay: protein stability index of a GFP-peptide fusion (GPS, HEK-293T) (PSI 1-6); higher = more stable; conditions: c terminus: a fixed tail appended;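 also: lentivirally expressed fusions sorted by FACS into six bins by GFP to DsRed ratio, PSI derived from sequencing read proportions per bin multiplied by bin number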
measured_attribute: protein stability index

var: E10G
measured_value: 2.3
//
var: K14Q
measured_value: 3.04
//
var: L20E
measured_value: 3.51
//
var: K14V
measured_value: 2.37
//
var: K14N
measured_value: 3.06
//
var: D1H
measured_value: 2.05
//
var: K23E
measured_value: 2.15
//
var: K4Q
measured_value: 2.61
//
var: Y22W
measured_value: 2.9
//
var: Y22A
measured_value: 2.53
//
var: D1E
measured_value: 1.77

Every entry's value here was drawn from the supplement of paper PMC10567573.
